System: Malme-3M
Experiment: NCI tumour cell line growth inhibition, 48 h
Active and inactive are the calls of the source. Rule as the data show it: active = GI50 up to about 1.1 µM and inactive = higher. Where a SMILES comes first, the peptide text is derived from it. [ ]: non-standard residue; d: D form. The star is where a group is joined. Cbz = O=C(OCc1ccccc1)*; Aib = CC(C)(N)C(=O)O; OBn = c1ccc(CO*)cc1
Kindly supply the reported GI50 values for the records listed here.

// GI50 (Malme-3M) for "Brc1cccc(/C=N/C23CC4CC(CC(C4)C2)C3)c1" = > 100 µM (inactive)

// GI50 (Malme-3M) for O=c1[nH]c(=S)[nH]c(-c2ccccc2)c1Cc1c(O)ccc2ccccc12 [CAMBINOL] = 7.98 µM (inactive)

// GI50 (Malme-3M) for "COc1cc2c(cc1OC)CC(=O)Nc1cc(OC)c(OC)cc1CC2" = 20.8 µM (inactive)

// GI50 (Malme-3M) for CCOP(=O)(OCC)C1CCCCOC1=O (configuration not stated) = > 100 µM (inactive)

// GI50 (Malme-3M) for CCN(CC)CC(C(=O)Nc1c(C)cccc1C)/C(C)=N\NC(=O)C[N+](C)(C)C (configuration not stated) = > 100 µM (inactive)

// GI50 (Malme-3M) for "CCOC(=O)c1sc2nc(SC)nc3c2c1NCN3C1CC1" = > 100 µM (inactive)

// GI50 (Malme-3M) for "N#CCN(Cc1ccccc1)[C@@H]1CCC[C@]1(O)C#Cc1ccc2c(c1)OCO2" = 18.2 µM (inactive)

// GI50 (Malme-3M) for "CN(C)CCCNC(=O)c1cccc2nc3ccccc3nc12" = 4.42 µM (inactive)

// GI50 (Malme-3M) for CCC(O)(Cc1ccc(OC)cc1)c1ccc(OC)cc1 (configuration not stated) = > 100 µM (inactive)

// GI50 (Malme-3M) for COP(C)(=O)C(Cc1c[nH]c2ccccc12)NC(=O)OCc1ccccc1 (configuration not stated) = > 100 µM (inactive)

// GI50 (Malme-3M) for CCCCCCCCCCCC1CCCC(C)N1 (configuration not stated) = 90.4 µM (inactive)

// GI50 (Malme-3M) for Cn1c(N)nc2c(nc(OCc3ccccc3)n2C2OC(CO)C(O)C2O)c1=O (configuration not stated) = > 100 µM (inactive)

// GI50 (Malme-3M) for CCOC(=O)c1cnccc1CC1(C#N)c2ccccc2C=CN1C(=O)c1ccccc1 (configuration not stated) = 6.17 µM (inactive)

// GI50 (Malme-3M) for CC(NC(=O)C(C)(C)NC(=O)C(CC(=O)OCc1ccccc1)NC(=O)OCc1ccccc1)C(N)=O (configuration not stated) (Cbz-Asp(OBn)-[Aib]-Ala-NH2; configuration not given here) = > 100 µM (inactive)

// GI50 (Malme-3M) for "Cc1cc(N(CCC#N)CCC#N)ccc1/C=C(/NC(=O)/C=C/c1ccccc1)C(N)=O" = > 100 µM (inactive)

// GI50 (Malme-3M) for O=c1[nH]c(=O)n(C2OC(CO)C(O)C2O)cc1OCc1ccccc1 (configuration not stated) = > 100 µM (inactive)

// GI50 (Malme-3M) for "Cc1nc(O)nc2nc3ccc(Cl)cc3c(NC(C)(CO)CO)c12" = > 100 µM (inactive)

// GI50 (Malme-3M) for CC(C)(C)OC(=O)NC(CSCc1ccc(C(=O)c2ccccc2)cc1)C(=O)O (configuration not stated) = > 100 µM (inactive)

// GI50 (Malme-3M) for C=CCCCCCCCCCP(=O)(c1ccccc1)c1ccc2c(c1)OCCOCCOCCOCCO2 (configuration not stated) = 17.7 µM (inactive)

// GI50 (Malme-3M) for O=C(c1ccc(Cl)cc1)C(O)c1ccc(Cl)cc1 (configuration not stated) = 40.3 µM (inactive)

// GI50 (Malme-3M) for "O=c1c2cc([N+](=O)[O-])ccc2n2n1CCCC2" = > 100 µM (inactive)

// GI50 (Malme-3M) for "Cc1[nH]c2ncn3[nH]c(=S)nc3c2c1Cc1ccccc1" = > 100 µM (inactive)
